These measurements were taken from patent US20060241051A1.

Hi there, I'd appreciate the recorded IC50 for every entry that follows.
target: T1, human OT7T175 (metastin receptor) (human, UniProt Q969F8 1-398); experiment: FMAT competition with Cy-5-labeled metastin (40-54), hOT7T175-expressed CHO cells
T1 construct: expressed on CHO cells (hOT7T175-expressed CHO cells; hOT7T175/CHO); also called hOT7T175; h0T7T175
T1 sequence (Q969F8 whole entry L364H): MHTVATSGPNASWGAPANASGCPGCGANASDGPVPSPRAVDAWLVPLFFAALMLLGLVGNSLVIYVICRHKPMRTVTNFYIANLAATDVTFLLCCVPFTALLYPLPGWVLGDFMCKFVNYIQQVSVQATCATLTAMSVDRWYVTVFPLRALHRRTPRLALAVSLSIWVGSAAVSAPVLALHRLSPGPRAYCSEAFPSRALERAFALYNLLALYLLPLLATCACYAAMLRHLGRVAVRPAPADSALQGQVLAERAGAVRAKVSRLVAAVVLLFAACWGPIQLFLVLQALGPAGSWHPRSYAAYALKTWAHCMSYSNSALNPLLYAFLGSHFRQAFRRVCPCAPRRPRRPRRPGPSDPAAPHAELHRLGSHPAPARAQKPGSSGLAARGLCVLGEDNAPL
Square brackets hold non-standard residues; d marks the D form. Ends that are not written are not given here. Arg(Me) = CNC(=N)NCCC[C@H](N)C(=O)O; azaGly = NNC(=O)O
State just the number; it will be interpreted in nM.

Quick note, IC50 for [dY]NFNSFF[azaGly]L[Arg(Me)]F-NH2 (11 residues; also called Endo-Phe5a-[D-Tyr1,Phe3,AzaGly7,Arg(Me)9]MS10) [Compound No. 270: [D-Tyr1,Phe3,Ser-Phe5,AzaGly7,Arg(Me)9]MS10] landed at 15

IC50 measured on [dY][dS]WNSF[azaGly]L[Arg(Me)]F-NH2 [Compound No. 287: [D-Tyr1,D-Ser2,AzaGly7,Arg(Me)9]MS10] = 2.3

Recorded result, {Indole‑3‑carbonyl}-NSF[azaGly]L[Arg(Me)]F-NH2 (also called des(1-3)-Indole-3-carboxyl-[AzaGly7,Arg(Me)9]MS10) [Compound No. 265: des(1-3)-Indole-3-carbonyl-[AzaGly7,Arg(Me)9]MS10] , IC50: 95
